Test system: PC-3
Measurement Description: NCI tumour cell line growth inhibition, 48 h
The source made the active and inactive calls. No stated cut-off is given here; in the data, active = GI50 up to about 1.1 µM and inactive = higher.
API: response.call in active, inactive

A selection of reference data follows.
COc1cc2cc(C(=O)N3CC(CCl)c4c3cc(N)c3ccccc43)[nH]c2cc1OCCN(C)C (stereo not given)
active
COc1cccc(C2c3cc4c(cc3OC(C)(N3CCCC3)C2C)OCO4)c1OC (stereo not given)
inactive
COc1ccc(-n2sc3ncc([N+](=O)[O-])cc3c2=O)cc1
inactive
CC(C)(C)OC(=O)NC(Cc1ccc(OCc2ccccc2)cn1)C(=O)N1CCCC1 (stereo not given)
inactive
Cc1cn2c(/C=C3/C(=O)Nc4ccccc43)c(-c3ccccc3)nc2s1
inactive
C=Cc1nc2c(Cl)ncnc2n1Cc1ccccc1
inactive
CN1C(=O)CN(NC(=O)C2=C(O)c3ccc(Br)cc3S(=O)(=O)N2)C1=S
inactive
NC(=O)CNC(=O)[C@@H]1C[C@@H](OCCC(=O)O)CN1C(=O)OCc1ccccc1
inactive

Recorded test outcome, item C=C1CC(O)C2C(=C)C(=O)OC2C2C(C)C(=O)CC12 (stereo not given)
inactive

Recorded test outcome, item `N#C[BH2-][n+]1ccc(C(=O)NNCC(F)(F)F)cc1`
inactive
